- TEST_PROTOCOL: NCI Yeast Anticancer Drug Screen. Data for the cln2 rad14 strain (AID 165);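 also: 0% = growth equal to vehicle treated cultures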
- MEASUREMENT_CONTEXT: S. cerevisiae cln2 rad14 strain, at 50.0 µM, stronger effect = higher value
About 79,000 compounds went through this panel and 15% of them were active in at least one assay; those are over-represented in the sample as a whole.
Threshold rule: growth inhibition greater than or equal to -20% is yes (1); below that, no (0).

Reference set (3 entries):
1) c1cc(C[S+]2CCCC2)ccc1C[S+]1CCCC1 : no (0)
2) Cc1cccc(NC(=O)Nc2cccc(Cl)c2Cl)n1 : yes (1)
3) CCCCCCCCCCCCOC(=O)NCCCl : no (0)

Q: Assess whether reported growth inhibition for Nc1ccc(CCc2ccc3ccccc3n2)cc1 sits at -20% or higher.
Ans: yes (1)

Q: Assess whether reported growth inhibition for COc1ccc(CCN=C2CCC(C(=O)NCCc3ccc(OC)c(OC)c3)N2)cc1OC (centres undefined) sits at -20% or higher.
Ans: yes (1)

Q: Assess whether reported growth inhibition for NNC(=S)NNc1ccccc1 sits at -20% or higher.
Ans: yes (1)

Q: Assess whether reported growth inhibition for O=c1cnc(=O)[nH][nH]1 sits at -20% or higher.
Ans: yes (1)

Q: Assess whether reported growth inhibition for CCCCNC1(N(C)C)N=C(N(C)C)N=C(N(C)C)O1 (centres undefined) sits at -20% or higher.
Ans: yes (1)

Q: Assess whether reported growth inhibition for S=C1NNC(=S)NN1 sits at -20% or higher.
Ans: yes (1)

###

- TEST_PROTOCOL: NCI Yeast Anticancer Drug Screen. Data for the bub3 strain (AID 167)
- MEASUREMENT_CONTEXT: S. cerevisiae bub3 mutant strain, at 50.0 µM, stronger effect = higher value
The panel holds about 79,000 compounds, 15% with a hit somewhere; the sample as a whole holds those more often.
RECORDED_ENDPOINT: growth inhibition (%)
Give just the numeric value; % need not be written.

Look over these answered cases.
1. O=C(O)c1c2ccccc2nc2c1sc1ccccc12 : -1.45
2. CCc1cccc(C(C)CC)c1NC(=O)CC1C(=O)Nc2ccccc2S1=O (stereo not drawn) : 32.5
3. CN(/N=C/c1ccc(O)c(/C=N/N(C)c2ccccn2)n1)c1ccccn1 : -2.7
4. C=Cc1c(Cl)cccc1Cl : -18.6
5. COc1ccc(-c2onc3ccc(Cl)cc23)cc1 : 7.35
6. O=C(O)Cc1ccccc1C(=O)O : -19
7. Oc1ccc(Br)cc1C(c1ccc2c(c1)OCO2)N1CCOCC1 (stereo not drawn) : 1.45
8. CN/C=C(/c1ccc(OC)cc1)C(O)c1ccc(OC)c(OC)c1 (stereo not drawn) : -10.8

Q: GET /values?readout=growth inhibition&item= CCCCCCCCC(Br)C(Br)CCCCCCCC(=O)N(CCCC)CCCC (stereo not drawn)
Ans: 13.8

Q: GET /values?readout=growth inhibition&item= CCOC(=O)C1(C)OC1c1ccc([N+](=O)[O-])cc1 (stereo not drawn)
Ans: -9.85

Q: GET /values?readout=growth inhibition&item= Cc1cccc(C2=C/C(=C(\SS/C(C(=O)c3ccc(OCC(=O)O)c(Cl)c3Cl)=C3\C=C(c4cccc(C)c4)SS3)C(=O)c3ccc(OCC(=O)O)c(Cl)c3Cl)SS2)c1
Ans: -5.15

Q: GET /values?readout=growth inhibition&item= CCC(O)CNCc1ccnc2ccc(OC)cc12 (stereo not drawn)
Ans: -4.1

From: PubChem BioAssay (NCI)
